Exercise: state measured GI50 for each of the compounds provided.
test system: UACC-62; experiment: NCI tumour cell line growth inhibition, 48 h
Active and inactive are the calls of the source. No stated cut-off is given here; in the data, active = GI50 up to about 1.1 µM and inactive = higher.

Q: Name the reported GI50 value associated with the compound CCN(CC)C(=S)N/N=C1\C(=O)Nc2ccccc21
A: 1.31 µM (inactive)

Q: Please give the measured GI50 for this compound: CC1CC(=O)N2CCCNC2=C1C#N (centres undefined)
A: > 100 µM (inactive)

Q: Fill in: GI50 of CCCCc1nccc2c(C)c3[nH]c4ccccc4c3cc12 is ___
A: 2.8 µM (inactive)

Q: Can you share its GI50? I mean this compound: Cc1ccc(C2C(Cl)C(=O)N2NC(=O)c2ccc(N)cc2)cc1 (centres undefined)
A: 15.8 µM (inactive)

The measured values listed here are drawn from ChEMBL document CHEMBL1201862.
